Record form. Attribute: CC50 at 4 days. Fill in for each entry.
Assay: Compound cytotoxicity, XTT-based colorimetric assay
Assay type: cell-based
Conditions: human; uninfected MT2 cells, day 4, XTT; read-out: CC50

[Q] Dear colleague, I am looking for the recorded CC50 at 4 days of the following compound: Cc1cc(C2CCC(F)(F)CC2)nc2nc([C@H](Cc3cc(F)cc(F)c3)NC(=O)Cn3nc(C4CC4)c4c3C[C@@H]3C[C@H]43)n(-c3ccc(Cl)c4c(NS(C)(=O)=O)nn(CCN5C[C@H](C)OC(C)(C)C5)c34)c(=O)c12 (atropisomer, axis not shown; (P))
[A] > 20 nM

[Q] Then what about the compound CS(=O)(=O)Nc1nn(CCN[C@@H]2CCCOC2)c2c(-n3c([C@H](Cc4cc(F)cc(F)c4)NC(=O)Cn4nc(C(F)F)c5c4C(F)(F)[C@@H]4C[C@H]54)nc4nc(C5CCC(F)(F)CC5)ccc4c3=O)ccc(Cl)c12 (atropisomer, axis not shown; (P)) ?
[A] > 50 nM
